ASSAY_PROTOCOL: Water-solubility in phosphate buffer (50 mM, pH 7.4), HPLC
Format: physicochemical
PROTOCOL_CONDITIONS: 50 mm phosphate buffer, aqueous buffer; phosphate buffer 50 mM, pH 7.4, room temperature
Where a name gives a salt, the structure may show the parent alone.
PARAMETER_MEASURED: solubility at 2 h (mg/mL)
Could you give me the number in mg/mL? Just the number is fine.

CCCC(=O)OP(=O)(O)C(Cl)(Cl)P(=O)(O)OC(=O)CCC [Butanoic acid dianhydride (Ex. 7), disodium salt] = 172
CC(=O)OP(=O)(O)C(Cl)(Cl)P(=O)(O)OC(C)=O [Compound 1, disodium salt] = 190
O=P([O-])([O-])C(Cl)(Cl)P(=O)(O)O.[Na+].[Na+] [Clodronate, reference compound] = 397

Could you now look at the following compound, please?
Input: Query (compound): O=C(OP(=O)(O)C(Cl)(Cl)P(=O)(O)OC(=O)c1ccccc1)c1ccccc1 [Benzoe acid dianhydride (Ex. 7), disodium salt] ; field requested: solubility at 2 h
Output: 6

====

Measured logD by item
ASSAY_PROTOCOL: Distribution coefficient octanol/buffer (log P)
Format: physicochemical
PROTOCOL_CONDITIONS: 1-octanol/phosphate buffer; 1-octanol/buffer, pH 7.4; read-out: Log P (pH 7.4)
Structures can show the parent of a compound that is named as a salt.
Would you mind answering with just the numeric figure?

# count of solved cases: 3
CCCC(=O)OP(=O)(O)C(Cl)(Cl)P(=O)(O)OC(=O)CCC [Butanoic acid dianhydride (Ex. 7), disodium salt] = -2.4
O=C(OP(=O)(O)C(Cl)(Cl)P(=O)(O)OC(=O)c1ccccc1)c1ccccc1 [Benzoe acid dianhydride (Ex. 7), disodium salt] = -2.4
CC(=O)OP(=O)(O)C(Cl)(Cl)P(=O)(O)OC(C)=O [Compound 1, disodium salt] = -2.2

Could you now look at the following molecule, please?
Input: Query (molecule): CC(C)(C)C(=O)OP(=O)(O)C(Cl)(Cl)P(=O)(O)OC(=O)C(C)(C)C [Pivalyl acid dianhydride (Ex. 7), disodium salt] ; field requested: logD
Output: -2.3

====

ASSAY_PROTOCOL: Absorption and hydrolysis in vivo, oral bioavailability in fasted rats
PROTOCOL_CONDITIONS: rat, 100 umol/kg, urine 72 hours, compared with intravenous, parent drug analyzed
PARAMETER_MEASURED: bioavailability at 72 h (%)
Could you give me the number in %? Just the number is fine.

Input: Query (molecule): O=P([O-])([O-])C(Cl)(Cl)P(=O)(O)O.[Na+].[Na+] [Clodronate, reference compound] ; field requested: bioavailability at 72 h
Output: 2.17

====

ASSAY_PROTOCOL: Chemical hydrolysis of prodrug molecules in phosphate buffer at 37° C.
Assay type: physicochemical
PROTOCOL_CONDITIONS: 50 mm phosphate buffer; phosphate buffer 50 mM, μ=0.15, pH 2.0, 37° C.; read-out: T1/2 pH 2.0 (converted)
Where a name gives a salt, the structure may show the parent alone.
Measured half-life by item

O=C(OP(=O)(O)C(Cl)(Cl)P(=O)(O)OC(=O)c1ccccc1)c1ccccc1 [Benzoe acid dianhydride (Ex. 7), disodium salt] = 17200 min

Input: Query (compound): CCCC(=O)OP(=O)(O)C(Cl)(Cl)P(=O)(O)OC(=O)CCC [Butanoic acid dianhydride (Ex. 7), disodium salt] ; field requested: half-life
Output: 48 min

Input: Query (compound): CC(=O)OP(=O)(O)C(Cl)(Cl)P(=O)(O)OC(C)=O [Compound 1, disodium salt] ; field requested: half-life
Output: 42 min
